# Test system: MDA-N
# Protocol Text: NCI tumour cell line growth inhibition, 48 h
The source made the active and inactive calls. No stated cut-off is given here; in the data, active = GI50 up to about 1.1 µM and inactive = higher.
Reported Endpoint: GI50

# Compound, Observed Measurement
records = [
    ("O=C1CC2(CCC(O)(c3ccc(Cl)cc3)C(C(=O)c3ccc(Cl)cc3)C2)C(=O)c2ccccc2N1 (centres undefined)", "15.2 µM (inactive)"),
]

Request: Look at this compound and give its reported GI50. O=c1c2cc([N+](=O)[O-])ccc2[nH]n1Cc1ccccn1
Result: > 100 µM (inactive)

Request: Look at this compound and give its reported GI50. CC(C)C(Br)CC/C(CBr)=C(\Cl)CCl (centres undefined)
Result: 1.85 µM (inactive)

Request: Look at this compound and give its reported GI50. COc1cccc2c(N)c3cccc(C(=O)NCCN(C)C)c3nc12
Result: 0.321 µM (active)

Source: ChEMBL document CHEMBL1201862
